Hi, quick share: literature IC50 data for Tyrosine-protein kinase JAK1 (Homo sapiens, UniProt P23458), several sources combined.
Give bare numbers, in µM.

[[record]]
compound = "CN(c1ncnc2[nH]ccc12)N1CCCC(C(=O)NCC(F)(F)F)C1 (stereo not drawn)"
parameter = "IC50"
recorded_result = 0.0029


Working through the 3 compounds below one at a time, give IC50 for each.
1. CN(c1ncnc2[nH]ccc12)[C@@H]1CCN(S(=O)(=O)c2ccccc2C#N)C1
2. C[C@@H](NC(=O)c1c[nH]c2ncc(-c3nn(C)c4cc(C5CC5)ccc34)nc12)C(=O)N1CC(C#N)C1
3. COc1ccc(S(=O)(=O)N2CC[C@@H](N(C)c3ncnc4[nH]ccc34)C2)cc1

Reply:
1: 0.052; 2: 0.01; 3: 0.026
